# measuredOn: T1, Recombinant human Fc-tagged extracellular domain of LILRB2 (human, UniProt Q8N423 22-460)
# T1 construct: extracellular domain; Bought from R&D Systems; also called LILRB2-Fc; not shown: Fc tag
# assay: SPR, Biacore X100; LILRB2-Fc amine-coupled to CM5 chip, antibody injected at 3.7-300 nM
Documented -log(Kd) across a set of binders
Hey, just send me the number, nothing else.

The following binders have reported results that may help.
>  <binder>
2F10 (antibody, V domains shown, Entries are printed with leader peptide and part of the mouse constant region; also called LILRB2 antibody 2F10) VH: EVQLQQSGPELVKPGASVKISCKASGYTFTDDYMNWVKQSHGKSLEWIGDINPTNGDTNYNQKFKGKATLTVDKSSSTAYMELRGLTSEDSAVYYCARGSSPFTYWGQGTLVTVSA VL: DIQMTQTTSSLSASLGDRVTISCSASQGISNYLNWYQQKPDGTVKLLIYYTSSLYSGVPSRFSGSGSGTDYSLTISNLEPEDIATYYCQQYSKLPWTFGGGTKLEIKR

>  <valueType>
-log(Kd)

>  <reportedMeasurement>
8.4

$$$$
>  <binder>
1G3 (antibody, V domains shown, Entries are printed with leader peptide and part of the mouse constant region; also called LILRB2 antibody 1G3) VH: EVQLVESGGDLVKPGGSLKLSCAASGFTFSSYDMSWVRQTPDKRLEWVATISSGGSYTFYPDSVKGRFTISRDNAKNTLSLQMSSLKSEDTAIYYCARWDSNYLRWFFDVWGTGTTVTVSS VL: DIVLTQSPASLAVSLGQRATISCRASESVDNNGISFMHWYQQKPGQSPKLLIYRASNLESGIPARFSGSGSRTDFTLTINPVETDDVATYYCQQSNDDPFTFGGGTKLEIKR

>  <valueType>
-log(Kd)

>  <reportedMeasurement>
8.05

$$$$

Could you now consider this next binder?
Could you tell me which -log(Kd) is on file for 1A8 (antibody, V domains shown, Entries are printed with leader peptide and part of the mouse constant region; also called LILRB2 antibody 1A8) VH: EVQLVESGGDLVKPGESLKLSCAASGFSFSSYDMSWVRQTPDKRLEWVTTISSGGDYTYFPDILKGRFTISRDNAKHTLYLQLSSLKSEDTAMYYCARWDSNFPHWYFDVWGTGTTVTVSS VL: DIVLTQSPASLAVSLGQRATISCRASESVDKSGISFLHWYQQKPRQPPKLLIYRASNLESGIPGRFSGSGSRTDFTLSINPVEPDDVATYYCQQSNKDPFTFGGGTKLEIKR ?
7.79

All figures here come from patent US20240150462A1.
